These entries and their values trace back to ChEMBL document CHEMBL1201862.

system: U-251; test: NCI tumour cell line growth inhibition, 48 h
The source made the active and inactive calls. No stated cut-off is given here; in the data, active = GI50 up to about 1.1 µM and inactive = higher.
readout.name: GI50

>>> assay_value("OCCCNCc1ccncc1")
"> 100 µM (inactive)"
>>> assay_value("N#CC(OC1OC(COC2OC(CO)C(O)C(O)C2O)C(O)C(O)C1O)c1ccccc1 (stereo unspecified)")
"> 225 µM (inactive)"
>>> assay_value("COC(c1cccc(C(O)(C(F)(F)F)C(F)(F)F)c1)(C(F)(F)F)C(F)(F)F")
"18.3 µM (inactive)"
>>> assay_value("CCC(COC(=O)CC[C@@H](NC(=O)C(C)NC(=O)C(C)OC1C(O)C(CO)OC(OCc2ccccc2)C1NC(C)=O)C(N)=O)NC1c2ccccc2Nc2cccc([N+](=O)[O-])c21 (stereo partly specified)")
"> 100 µM (inactive)"
>>> assay_value("CC(=O)OC(C)c1cc2c(s1)C(=O)c1sccc1C2=O (stereo unspecified)")
"0.944 µM (active)"
>>> assay_value("COc1ccc(C2N(c3ccc(F)cc3)C(=O)N3C(c4ccc(OC)cc4)N(c4ccc(F)cc4)C(=O)N23)cc1 (stereo unspecified)")
"> 100 µM (inactive)"
>>> assay_value("O=C1ON=C2C3CC4CC12CC1(C3)C(=O)ON=C41")
"> 100 µM (inactive)"
>>> assay_value("O=C(O)CCc1cccc2c1oc1c(CCC(=O)O)cccc12")
"> 100 µM (inactive)"
>>> assay_value("Cc1cc(S(=O)(=O)Nc2nnc3c(Cl)cc(C(F)(F)F)cn23)c(S)cc1Cl")
"36 µM (inactive)"
>>> assay_value("CC(=O)OCCOCNC(=S)N/N=C/c1cc([N+](=O)[O-])ccc1O")
"> 100 µM (inactive)"
>>> assay_value("CCOC(=O)COc1cc(-c2ccccc2F)nc2cc3c(cc12)OCO3")
"93.5 µM (inactive)"
>>> assay_value("Cc1ccc(Cc2n[nH]c(=O)[nH]2)cc1")
"> 100 µM (inactive)"
>>> assay_value("CC(C)(C)OC(=O)NCCC(N)=S")
"> 100 µM (inactive)"
>>> assay_value("CS(=O)(=O)CCC(N)P(=O)(O)O (stereo unspecified)")
"> 100 µM (inactive)"
>>> assay_value("CN(C)c1nc(N(C)c2ccccc2)[s+]s1")
"31.6 µM (inactive)"
>>> assay_value("C/C=C(\\C)c1cc(O)c(C)c2c1Oc1cc(O)c(Cl)c(C)c1C(=O)O2")
"23.4 µM (inactive)"
>>> assay_value("COc1cc(C2C3=C(COC3=O)Oc3cc4c(cc32)OCO4)ccc1O (stereo unspecified)")
"0.467 µM (active)"
>>> assay_value("CC(C)N(C(=O)C12C3C4C5(C#N)C3C1(C#N)C5C42C#N)C(C)C (stereo unspecified)")
"> 100 µM (inactive)"
>>> assay_value("O=C1CC2OCC=C3CN4CCC5(C(=O)O)C(N1)C2C3CC45 (stereo unspecified)")
"> 100 µM (inactive)"
>>> assay_value("C=CCCC12CCCC(=O)C1Sc1ccc3ccccc3c12 (stereo unspecified)")
"16.6 µM (inactive)"
>>> assay_value("CC1OC(O)CC(N(C)C)C1O.CC1OC(O)CCC1O.CCC1CC(O)c2c(O)c3c(c(O)c2C1O)C(=O)c1cccc(O)c1C3=O (stereo unspecified)")
"0.0211 µM (active)"
>>> assay_value("CC(=O)OCC1(CNc2nc(N)ncc2C#N)CC(CCc2ccccc2)C1 (stereo unspecified)")
"31.3 µM (inactive)"
>>> assay_value("CC1(C)CC(=O)c2c(nc3ccc4ccccc4c3c2-c2ccc(NC(=O)CCCC(=O)Nc3ccc(-c4c5c(nc6ccc7ccccc7c46)CC(C)(C)CC5=O)cc3)cc2)C1")
"> 100 µM (inactive)"
>>> assay_value("N=c1c2c3n(c4c(=O)n(-c5ccccc5)c(=S)n(c(=O)n1-c1ccccc1)c24)CCCCC3")
"> 100 µM (inactive)"
>>> assay_value("CC(C)CCC[C@@H](C)[C@H]1CC[C@H]2[C@@H]3CC=C4CC(OCCCCN(O)CCCSC5OC(CO)C(O)C(O)C5O)CC[C@]4(C)[C@H]3CC[C@]12C (stereo partly specified)")
"30.2 µM (inactive)"
>>> assay_value("CCCCC#C[I+]c1ccccc1")
"16.2 µM (inactive)"
>>> assay_value("Nc1nc(=O)c(/N=N/c2ccc([As](=O)(O)O)cc2)c(N)[nH]1")
"> 100 µM (inactive)"
>>> assay_value("CC(=O)Nc1ccc(C(=O)NN2C(=O)C(Cl)C2c2cc(Br)cc(Br)c2O)cc1 (stereo unspecified)")
"> 100 µM (inactive)"
>>> assay_value("O=c1n(CCCN2CCN(c3cccc(Cl)c3)CC2)nc2n1-c1ccc3ccccc3c1SC2")
"> 100 µM (inactive)"
>>> assay_value("COC(=O)[C@H]1C=NN[C@@H]1C(=O)N1[C@H]2CC3CC[C@@]2(CS1(=O)=O)C3(C)C")
"> 100 µM (inactive)"
>>> assay_value("O=C1NC(=O)C2=C1CCC2O (stereo unspecified)")
"> 100 µM (inactive)"
>>> assay_value("c1ccc2c(c1)N=C(c1ccc3ccccc3c1)CC(c1cccc3ccccc13)S2 (stereo unspecified)")
"60.1 µM (inactive)"
>>> assay_value("NCOC(=O)Cc1ccc(Br)cc1")
"> 100 µM (inactive)"
>>> assay_value("CCN(CC)CCCNc1n[n+]([O-])c2ccccc2[n+]1[O-]")
"18.5 µM (inactive)"
>>> assay_value("COc1cccc2nc3ccccc3nc12")
"55.5 µM (inactive)"
>>> assay_value("Cc1c2cnccc2c(C)c2c1c1ccccc1n2CCCN")
"0.258 µM (active)"
>>> assay_value("CC(=O)NC1=CC(=O)C=C(Cl)C1=O")
"> 100 µM (inactive)"
>>> assay_value("CCCCCCCCCCCCOCCCCCCCCC/C=C/c1ccc2c(c1)OCCOCCOCCOCCO2")
"22.8 µM (inactive)"
>>> assay_value("CC(C)C[S+]1C2=C(CC(C)(C)CC2=O)[N-]c2ccccc21 (stereo unspecified)")
"> 100 µM (inactive)"
>>> assay_value("O=C1/C(=C/c2n[nH]cc2-c2ccc(Cl)cc2)C(=O)N(c2ccccc2)C1c1ccccc1 (stereo unspecified)")
"19.9 µM (inactive)"
>>> assay_value("CC(=O)OCC1=C(CCC#N)N2C(=O)C(NC(=O)Cc3cccs3)C2[S+]([O-])C1 (stereo unspecified)")
"> 100 µM (inactive)"
